Target: MAGL (Homo sapiens, UniProt Q99685)
Sequence (Q99685 1-303): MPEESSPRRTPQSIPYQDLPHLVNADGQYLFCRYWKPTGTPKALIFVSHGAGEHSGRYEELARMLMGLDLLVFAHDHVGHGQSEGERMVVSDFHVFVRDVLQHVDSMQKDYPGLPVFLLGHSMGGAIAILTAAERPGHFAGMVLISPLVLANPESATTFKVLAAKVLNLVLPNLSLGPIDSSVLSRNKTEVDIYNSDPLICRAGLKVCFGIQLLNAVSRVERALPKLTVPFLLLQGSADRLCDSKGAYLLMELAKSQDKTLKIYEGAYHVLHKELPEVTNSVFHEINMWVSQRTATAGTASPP
parameter: IC50 (nM)

COc1cccc(C(=O)N2CCN3C[C@@H](c4cccc(F)c4F)OC[C@@H]3C2)c1Cl [Example 149] ... 468
COc1cccc(C(=O)N2CCN3C[C@@](O)(c4cc(-c5ccccc5)no4)OC[C@@H]3C2)c1Cl [Example 143] ... 348
O=C1CN(c2cccc(C(=O)N3CCN4C[C@@H](c5ccc(F)c(Cl)c5)OC[C@@H]4C3)c2Cl)CCN1 [Example 126] ... 96.2
O=C(c1cccc(-c2c[nH]nc2F)c1F)N1CCN2C[C@@](O)(c3ccc(C(F)(F)F)nc3)OC[C@@H]2C1 [Example 78] ... 130
COc1cccc(C(=O)N2CCN3C[C@@H](c4ccc(F)c(Br)c4)OC[C@@H]3C2)c1Cl [Example 6] ... 10.9

[P] Cc1c(-c2cccc(C(=O)N3CCN4C[C@@H](c5ccc(F)c(Cl)c5)OC[C@@H]4C3)c2Cl)cnn1C [Example 39]
[Q] Cc1nocc1-c1cccc(C(=O)N2CCN3C[C@@H](c4ccc(F)c(Cl)c4)OC[C@@H]3C2)c1Cl [Example 40]
[R] COc1cccc(C(=O)N2CCN3C[C@@](O)(c4cccc(C(F)(F)F)c4)OC[C@@H]3C2)c1Cl [Example 141]
Query: Rank ascending by IC50. Order the labels as requested and list them.
Result: P, Q, R
